The values you see were collected from ChEMBL document CHEMBL3112476.

Target Desc: Inhibitor of nuclear factor kappa-B kinase subunit epsilon (Homo sapiens) (UniProt Q14164)
Assay Comment: Inhibition of recombinant IKKepsilon (unknown origin) using ulight-rpS6 as substrate at 20 uM after 2 hrs by LANCE ultra TR-FRET assay relative to control
Property Label: inhibition (%)
Value expressed in %; do not type the unit.

Observe how each entry below is paired with its result.
COCCOCOc1cc(C)c(-c2ncc(/C=C/C(=O)O)s2)cc1C12CC3CC(CC(C3)C1)C2: 11.1
COc1nc(/C=C/C(=O)O)cnc1-c1cc(C23CC4CC(CC(C4)C2)C3)c(O)cc1C: 6.7
CC(=O)NCCCOc1cc(/C=C/C(=O)O)ccc1-c1cc(C23CC4CC(CC(C4)C2)C3)c(O)cc1C: 5.2
Cc1cc(O)c(C23CC4CC(CC(C4)C2)C3)cc1-c1ccc2cc(C(=O)O)ccc2c1Cl: 41.5
COCCOCOc1ccc(-c2ncc(-c3ccc(C(=O)O)cc3)nc2OC)cc1C12CC3CC(CC(C3)C1)C2: 18.8

Looking for the measured inhibition of Cc1cc(O)c(C23CC4CC(CC(C4)C2)C3)cc1-c1ccc(/C=C/C(=O)O)cc1Cl , can you help? 11.9

Please do the same for COCCOCOc1ccc(C(=O)/C=C/c2ccc(C(=O)O)cc2)cc1C12CC3CC(CC(C3)C1)C2 as well. 15.8

Please do the same for COCCOCOc1cc(C)c(-c2ncc(/C=C/C(=O)O)nc2OC)cc1C12CC3CC(CC(C3)C1)C2 as well. 5.9

Please do the same for O=C(O)/C=C/c1ccc(-c2ccc(O)c(C34CC5CC(CC(C5)C3)C4)c2)c(Cl)c1 as well. 24.1

---

Target Desc: Inhibitor of nuclear factor kappa-B kinase subunit beta (Homo sapiens)
Assay Comment: Inhibition of recombinant IKKbeta (unknown origin) using ulight-IkappaomegaBalpha as substrate at 20 uM after 1 hr by LANCE ultra TR-FRET assay relative to control
Would you mind sorting the entries by inhibition according to these classes? lower segment (below 5%), middle segment (5% to below 30%), upper segment (30% or more)

The examples below pair each entry with its known result.
CC(=O)NCCCOc1cc(/C=C/C(=O)O)ccc1-c1cc(C23CC4CC(CC(C4)C2)C3)c(O)cc1C: lower segment
CC(=O)NCCCOc1cc(/C=C/C(=O)O)ccc1-c1ccc(O)c(C23CC4CC(CC(C4)C2)C3)c1: lower segment

Field: class (inhibition) — entry: COCCOCOc1ccc(-c2ncc(-c3ccc(C(=O)O)cc3)nc2OC)cc1C12CC3CC(CC(C3)C1)C2 middle segment

---

Target Desc: Inhibitor of nuclear factor kappa-B kinase subunit epsilon (Homo sapiens) (UniProt Q14164)
Sequence (whole entry): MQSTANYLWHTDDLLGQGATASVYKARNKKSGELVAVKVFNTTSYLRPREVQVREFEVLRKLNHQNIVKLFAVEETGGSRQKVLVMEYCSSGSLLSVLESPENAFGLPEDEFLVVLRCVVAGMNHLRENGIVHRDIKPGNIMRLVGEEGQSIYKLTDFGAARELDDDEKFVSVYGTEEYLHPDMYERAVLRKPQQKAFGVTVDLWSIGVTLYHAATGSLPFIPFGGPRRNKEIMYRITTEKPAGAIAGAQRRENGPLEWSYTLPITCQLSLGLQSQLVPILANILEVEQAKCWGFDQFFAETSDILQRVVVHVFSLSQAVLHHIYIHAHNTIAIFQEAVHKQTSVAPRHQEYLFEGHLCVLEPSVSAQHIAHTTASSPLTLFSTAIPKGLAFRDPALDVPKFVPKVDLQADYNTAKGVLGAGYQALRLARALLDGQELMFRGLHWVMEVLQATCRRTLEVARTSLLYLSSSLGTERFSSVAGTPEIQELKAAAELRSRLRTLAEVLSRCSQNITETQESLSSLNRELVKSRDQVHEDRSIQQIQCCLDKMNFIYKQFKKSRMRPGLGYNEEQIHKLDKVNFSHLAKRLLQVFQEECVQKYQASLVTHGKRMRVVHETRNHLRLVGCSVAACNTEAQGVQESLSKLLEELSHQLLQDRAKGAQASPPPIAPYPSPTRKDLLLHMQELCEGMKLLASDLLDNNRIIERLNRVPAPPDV
Assay Comment: Inhibition of recombinant IKKepsilon (unknown origin) using ulight-rpS6 as substrate at 20 uM after 2 hrs by LANCE ultra TR-FRET assay relative to control
inhibition vs 10%: at or above is T, below is F.

The examples below pair each entry with its known result.
COc1nc(/C=C/C(=O)O)cnc1-c1ccc(O)c(C23CC4CC(CC(C4)C2)C3)c1: F
COCCOCOc1ccc(-c2ncc(/C=C/C(=O)O)s2)cc1C12CC3CC(CC(C3)C1)C2: T
COCCOCOc1cc(C)c(-c2ccc(CC(=O)O)cc2Cl)cc1C12CC3CC(CC(C3)C1)C2: F

Does COCCOCOc1cc(C)c(-c2ccc(/C=C/C(=O)O)cc2Cl)cc1C12CC3CC(CC(C3)C1)C2 have a reported inhibition of at least 10%? F

Please do the same for COCCOCOc1cc(C)c(-c2ncc(-c3ccc(C(=O)O)cc3)s2)cc1C12CC3CC(CC(C3)C1)C2 as well. T

Please do the same for CC(=O)NCCCOc1cc(/C=C/C(=O)O)ccc1-c1ccc(O)c(C23CC4CC(CC(C4)C2)C3)c1 as well. T

Please do the same for COCCOCOc1cc(C)c(-c2ccc3cc(C(=O)O)ccc3c2Cl)cc1C12CC3CC(CC(C3)C1)C2 as well. T

Please do the same for Cc1cc(O)c(C23CC4CC(CC(C4)C2)C3)cc1-c1ccc(CC(=O)O)cc1Cl as well. F
